The molecules listed here are annotated with their cell viability.
Test system: SEM cells
Test: cell viability relative to DMSO control; higher = less cytotoxic
Details: RPMI 5 mM glucose + 10% FBS; 48 h; 0.0211 µM

{"columns": ["molecule", "cell viability / %"],
 "data": [
  ["C#Cc1cccc(Nc2ncnc3cc(OCCOC)c(OCCOC)cc23)c1", 128],
  ["O=C(OC)[C@]12CC[C@@]3(C)[C@]4(C)CC[C@H]5[C@@](C)(C)C(=O)C(=C[C@]5(C)C4=CC(=O)[C@@H]3[C@@H]2C[C@](C)(C)CC1)C#N", 94.6],
  ["COc1cnc(N[S+](=O)([O-])c2ccc(N)cc2)nc1", 104],
  ["[NH2][Pt]1([NH2])[O]CC(=O)[O]1", 96.4],
  ["CCCCCOC(=O)NC\\1=N\\C(=O)N(\\C=C1F)[C@@H]2O[C@H](C)[C@@H](O)[C@H]2O", 109],
  ["O=NN(CCCl)C(=O)NCCCl", 110],
  ["Cc1cn2c(-c3cn[nH]c3)cnc2c(Nc2ccc(C(=O)N3CCNCC3)cc2F)n1", 98.5],
  ["COc1ccc(Cc2ccc(NC(N)=O)cc2)cc1-c1cccc(Cl)c1", 117],
  ["C[C@](O)(COc1ccc(C#N)cc1)C(=O)Nc1ccc(C#N)c(C(F)(F)F)c1", 104],
  ["O=C([O-])C(O)Cc1ccc(O)c(O)c1 (stereo not given)", 96.8]
]}

----------
System: NOMO1
Assay: cell viability relative to DMSO control; higher = less cytotoxic
Settings: RPMI 5 mM glucose + 10% dialyzed FBS; 48 h; 0.00702 µM
measured-metric: cell viability (%)

{"columns": ["molecule", "meas-value"],
 "data": [
  ["COC1=NC(=NC(=C1N\\C2=N\\CCN2)Cl)C", 82.8],
  ["C/C=C1\\NC(=O)[C@H]2CSSCC/C=C\\[C@H](CC(=O)N[C@H](C(C)C)C(=O)N2)OC(=O)[C@H](C(C)C)NC1=O", 103],
  ["COC1=CC=CC=C1C2=CC=CC(=C2)C/3=C(O)/C4=CC(=C(Cl)C=C4NC3=O)C#N", 95.4],
  ["Cc1cn2c(-c3cn[nH]c3)cnc2c(Nc2ccc(C(=O)N3CCNCC3)cc2F)n1", 93.8],
  ["CC(C)n1nc(-c2cc3cc(O)ccc3[nH]2)c2c(N)ncnc21", 100],
  ["CN(C)c1ccc(O)c2c1C[C@H]1C[C@H]3[C@H](N(C)C)C(O)=C(C(N)=O)C(=O)[C@@]3(O)C(O)=C1C2=O", 101],
  ["CCC1(C)CC(=O)NC1=O (centres undefined)", 96.7],
  ["Cc1c(CCOc2ccc(C(=O)O)cc2)c2cc(Cl)ccc2n1C(c1ccccc1)c1ccccc1", 125],
  ["CC\\1=C(C(\\N=C(/N1)C2=CC(=NC=C2)Cl)C3=C(F)C=C(Cl)C=C3)/C(=O)NC4=C(F)C=C5[NH]N=CC5=C4 (centres undefined)", 122]
]}

----------
System: NOMO1
Assay: cell viability relative to DMSO control; higher = less cytotoxic
Conditions: HPLM + 10% dialyzed FBS; 48 h; 0.19 µM

{"columns": ["smiles-str", "cell viability"],
 "data": [
  ["OC[C@H]1O[C@@H](O[C@@H]2[C@@H](CO)O[C@](O)(CO)[C@H]2O)[C@H](O)[C@@H](O)[C@H]1O", "92.2%"],
  ["Cc1cc(OCCCc2c(C(=O)O)n(Cc3cccnc3)c3c(-c4c(COc5ccc(N6CCN([S+](C)(=O)[O-])CC6)cc5)nn(C)c4C)cccc23)cc(C)c1Cl", "104%"],
  ["COc1cnc(N[S+](=O)([O-])c2ccc(N)cc2)nc1", "119%"]
]}

----------
As shown below, each of these compounds has a reported AUC of viability dose-response curve value.
Tested on: NOMO1
Test: AUC of viability dose-response curve (% viability x log10 dose units); higher = less sensitive
Settings: RPMI 5 mM glucose + 10% FBS; 48 h

{"columns": ["compound", "AUC of viability dose-response curve"],
 "data": [
  ["C[C@]12C[C@H](O)[C@H]3[C@@H](CC\\C4=C\\C(=O)\\C=C/[C@]34C)[C@@H]1CC[C@]2(O)C(=O)CO", 456],
  ["Cl.Cl.Cl.O[C@@H](COc1cccc2ncccc12)CN1CCN([C@@H]2c3ccccc3[C@@H]3[C@H](c4ccccc42)C3(F)F)CC1", 397],
  ["FC(F)(F)c1ccc(/C=C/c2nc(COc3ccc(CCCCn4ccnn4)cc3)co2)cc1", 359],
  ["NC[C@H]1CC[C@H](C(=O)O)CC1", 475],
  ["CCC(C)SSc1ncc[nH]1 (centres undefined)", 426],
  ["NC(=O)c1cnc(N[C@@H]2CCCC[C@@H]2N)nc1Nc1cccc(-n2nccn2)c1", 457],
  ["Cn1c(=O)c2c(ncn2C)n(C)c1=O.O=C(O)CC(O)(CC(=O)O)C(=O)O", 465],
  ["COc1cnc(N[S+](=O)([O-])c2ccc(N)cc2)nc1", 457],
  ["CCC[C@H](NC(=O)/C(C#N)=C/c1cccc(Br)n1)c1ccccc1", 454]
]}

----------
# cell viability per entry
Test system: P12-Ichikawa
Assay: cell viability relative to DMSO control; higher = less cytotoxic
Details: HPLM + 10% dialyzed FBS; 48 h; 5.12 µM

{"columns": ["smiles-str", "unit-of-measure", "cell viability"],
 "data": [
  ["[NH2][Pt]1([NH2])[O]CC(=O)[O]1", "%", 105],
  ["COc1ccc(C[C@@H](C)[C@@H](C)Cc2ccc(OC)c(OC)c2)cc1OC", "%", 6.15],
  ["CO[C@H]1/C=C/O[C@@]2(C)Oc3c(C)c(O)c4c(O)c(c5c(nc6cc(C)ccn65)c4c3C2=O)NC(=O)/C(C)=C\\C=C\\[C@H](C)[C@H](O)[C@@H](C)[C@@H](O)[C@@H](C)[C@H](OC(C)=O)[C@@H]1C", "%", 50.2],
  ["COc1c(C)cnc(Cn2cnc3c(Cl)nc(N)nc32)c1C", "%", 55.1],
  ["OC1=CC=C(C=C1)\\C2=C\\OC3=C(C=CC(=C3)O)C2=O", "%", 92.7],
  ["Cc1c(CCOc2ccc(C(=O)O)cc2)c2cc(Cl)ccc2n1C(c1ccccc1)c1ccccc1", "%", 101],
  ["C[C@H]1[C@H](NC(=O)/C(=N/OC(C)(C)C(=O)O)c2csc(N)n2)C(=O)N1[S+](=O)([O-])O", "%", 109],
  ["O=NN(CCCl)C(=O)NCCCl", "%", 102],
  ["Cc1ccc(NC(=O)c2ccc(CN3CCN(C)CC3)cc2)cc1Nc1nc(-c2cccnc2)cs1", "%", 70.5]
]}

----------
Tested on: NOMO1
Assay: cell viability relative to DMSO control; higher = less cytotoxic
Details: HPLM + 10% dialyzed FBS; 48 h; 46.1 µM
measured-metric: cell viability

{"columns": ["compound", "system", "meas-value"],
 "data": [
  ["Cc1cc(OCCCc2c(C(=O)O)n(Cc3cccnc3)c3c(-c4c(COc5ccc(N6CCN([S+](C)(=O)[O-])CC6)cc5)nn(C)c4C)cccc23)cc(C)c1Cl", "NOMO1", "71.8%"],
  ["CCC(C)SSc1ncc[nH]1 (stereo unspecified)", "NOMO1", "12.6%"],
  ["CNC(=O)c1ccc(-c2cnc3ncc(Cc4ccc5ncccc5c4)n3n2)cc1F", "NOMO1", "135%"],
  ["COc1ccc(-c2cc3nccn3c(Nc3ncccc3C(N)=O)n2)cc1OC", "NOMO1", "93%"],
  ["[NH2][Pt]1([NH2])[O]CC(=O)[O]1", "NOMO1", "88.3%"],
  ["C=CC(=O)Nc1cccc(Oc2nc(Nc3ccc(N4CCN(C)CC4)cc3)ncc2Cl)c1", "NOMO1", "135%"],
  ["CN1[C@@H]2CC(OC(=O)[C@@H](CO)c3ccccc3)C[C@H]1[C@H]1O[C@H]12 (stereo partly specified)", "NOMO1", "121%"],
  ["C[C@](O)(COc1ccc(C#N)cc1)C(=O)Nc1ccc(C#N)c(C(F)(F)F)c1", "NOMO1", "71.2%"],
  ["CCCCCOC(=O)NC\\1=N\\C(=O)N(\\C=C1F)[C@@H]2O[C@H](C)[C@@H](O)[C@H]2O", "NOMO1", "81.4%"],
  ["C[C@]\\12CC[C@H](O)CC1=C/CC3C2CC[C@@]\\4(C)C3C\\C=C4[N]5C=NC6=C5C=CC=C6 (stereo partly specified)", "NOMO1", "110%"],
  ["Cc1ccccc1C(C(=O)NC1CCCCC1)N(C(=O)Cn1ccnc1C)c1cccc(F)c1 (stereo unspecified)", "NOMO1", "89.4%"]
]}
